# assay-target: Solute carrier family 22 member 6 (Homo sapiens, UniProt Q4U2R8)
# assay-summary: Inhibition of OAT1 (unknown origin) expressed in HEK293 cells assessed as reduction in 6-CF uptake measured after 5 mins by fluorescence assay
Field 'label' (enum: fulfilled / not fulfilled). Set to fulfilled when IC50 is strictly under 8 µM; else not fulfilled.

Example entries begin here.
[
  {
    "compound": "COC(C)c1cc(O)cc2c1-c1ccc(O)c(C)c1CC2 (racemic)",
    "group-label": "not fulfilled"
  },
  {
    "compound": "COc1cc(C(=O)c2ccc(O)c(OC)c2)ccc1O",
    "group-label": "fulfilled"
  },
  {
    "compound": "C=Cc1cc2c(cc1C(=O)O)CCc1c-2ccc(O)c1C",
    "group-label": "not fulfilled"
  },
  {
    "compound": "C=Cc1cc(C(=O)O)cc2c1-c1ccc(O)c(C)c1CC2",
    "group-label": "fulfilled"
  },
  {
    "compound": "C=Cc1c(C(=O)O)ccc2c1CCc1c-2ccc(O)c1C",
    "group-label": "not fulfilled"
  }
]

Is IC50 strictly under 8 µM for the entry C=Cc1cc(O)cc2c1-c1ccc(O)c(C)c1CC2 [EFFUSOL] ?
not fulfilled

###

# assay-target: OAT1 (SLC22A6) (Homo sapiens)
# Sequence (Q4U2R8 whole entry): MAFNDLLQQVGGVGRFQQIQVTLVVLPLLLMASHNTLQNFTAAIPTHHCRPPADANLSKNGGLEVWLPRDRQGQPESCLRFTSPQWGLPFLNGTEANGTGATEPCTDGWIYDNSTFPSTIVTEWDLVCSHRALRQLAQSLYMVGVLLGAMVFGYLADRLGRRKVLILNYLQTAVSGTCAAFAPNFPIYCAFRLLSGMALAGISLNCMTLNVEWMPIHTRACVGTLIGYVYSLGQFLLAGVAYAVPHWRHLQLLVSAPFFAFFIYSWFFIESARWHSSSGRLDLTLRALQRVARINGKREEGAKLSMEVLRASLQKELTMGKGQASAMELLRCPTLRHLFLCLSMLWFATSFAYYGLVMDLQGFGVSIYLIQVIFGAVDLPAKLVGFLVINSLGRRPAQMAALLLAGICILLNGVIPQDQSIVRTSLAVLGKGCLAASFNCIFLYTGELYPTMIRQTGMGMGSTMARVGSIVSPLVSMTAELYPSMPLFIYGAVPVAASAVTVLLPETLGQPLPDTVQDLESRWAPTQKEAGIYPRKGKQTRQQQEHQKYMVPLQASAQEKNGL
# assay-summary: Inhibition of OAT1 (unknown origin) expressed in HEK293 cells assessed as reduction in 6-CF uptake at 50 uM measured after 5 mins by fluorescence assay relative to control
# Format: cell-based
# cond: HEK293 cells expressing OAT1, probe 6-CF
Entries and their inhibition at 5 min, 50 µM

Example cases with answers are listed next.
[
  {
    "molecule": "C=Cc1cc(C(=O)O)cc2c1CCc1c-2ccc(O)c1C",
    "inhibition at 5 min, 50 µM": "< 50%"
  },
  {
    "molecule": "C=Cc1cc2c(cc1C(=O)O)CCc1c-2ccc(O)c1C",
    "inhibition at 5 min, 50 µM": "> 50%"
  },
  {
    "molecule": "C=Cc1cc(O)cc2c1-c1ccc(O)c(C)c1CC2 [EFFUSOL]",
    "inhibition at 5 min, 50 µM": "> 50%"
  },
  {
    "molecule": "C=Cc1c(C(=O)O)ccc2c1CCc1c-2ccc(O)c1C",
    "inhibition at 5 min, 50 µM": "> 50%"
  }
]

Measured on OAT1 (SLC22A6) (Homo sapiens), "COc1cc(C(=O)c2ccc(O)c(OC)c2)ccc1O" has a documented inhibition at 5 min, 50 µM of > 50%

Measured on OAT1 (SLC22A6) (Homo sapiens), "C=Cc1c(C)c(O)cc2c1-c1ccc(O)c(C)c1CC2" has a documented inhibition at 5 min, 50 µM of < 50%

Measured on OAT1 (SLC22A6) (Homo sapiens), COC(C)c1cc(O)cc2c1-c1ccc(O)c(C)c1CC2 (racemic) has a documented inhibition at 5 min, 50 µM of > 50%

Measured on OAT1 (SLC22A6) (Homo sapiens), "C=Cc1cc(C(=O)O)cc2c1-c1ccc(O)c(C)c1CC2" has a documented inhibition at 5 min, 50 µM of > 50%

###

# assay-target: Organic anion transporter 3 (Homo sapiens, UniProt Q8TCC7)
# Sequence (Q8TCC7 whole entry): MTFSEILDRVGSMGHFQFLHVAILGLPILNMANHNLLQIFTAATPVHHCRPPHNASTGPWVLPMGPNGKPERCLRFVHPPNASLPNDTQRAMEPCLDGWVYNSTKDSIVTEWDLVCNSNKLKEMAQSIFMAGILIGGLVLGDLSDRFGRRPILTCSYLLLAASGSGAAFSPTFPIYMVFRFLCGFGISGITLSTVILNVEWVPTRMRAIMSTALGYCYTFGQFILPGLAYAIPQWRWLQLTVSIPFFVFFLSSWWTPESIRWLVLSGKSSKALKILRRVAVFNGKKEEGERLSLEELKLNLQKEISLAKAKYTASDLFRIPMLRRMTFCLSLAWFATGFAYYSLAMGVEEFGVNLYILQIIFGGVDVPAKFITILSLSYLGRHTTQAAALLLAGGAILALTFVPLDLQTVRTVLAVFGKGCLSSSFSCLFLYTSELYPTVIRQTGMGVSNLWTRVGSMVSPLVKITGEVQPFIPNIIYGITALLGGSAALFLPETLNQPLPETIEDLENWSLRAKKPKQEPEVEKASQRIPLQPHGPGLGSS
# assay-summary: Inhibition of OAT3 (unknown origin) expressed in HEK293 cells assessed as reduction in 6-CF uptake measured after 5 mins by fluorescence assay
# Assay type: cell-based
# cond: human, hek293, 5 min
reported-metric: inhibition (INH)

Example cases with answers are listed next.
[
  {
    "compound": "C=Cc1cc2c(cc1C(=O)O)CCc1c-2ccc(O)c1C",
    "inhibition (INH)": "Dose-dependent effect"
  },
  {
    "compound": "COc1cc(C(=O)c2ccc(O)c(OC)c2)ccc1O",
    "inhibition (INH)": "Dose-dependent effect"
  },
  {
    "compound": "C=Cc1c(C)c(O)cc2c1-c1ccc(O)c(C)c1CC2",
    "inhibition (INH)": "Dose-dependent effect"
  },
  {
    "compound": "C=Cc1cc(C(=O)O)cc2c1-c1ccc(O)c(C)c1CC2",
    "inhibition (INH)": "Dose-dependent effect"
  },
  {
    "compound": "C=Cc1c(C(=O)O)ccc2c1CCc1c-2ccc(O)c1C",
    "inhibition (INH)": "Dose-dependent effect"
  },
  {
    "compound": "COC(C)c1cc(O)cc2c1-c1ccc(O)c(C)c1CC2 (racemic)",
    "inhibition (INH)": "Dose-dependent effect"
  }
]

Now let's try a different one.
Record summary for "C=Cc1cc(C(=O)O)cc2c1CCc1c-2ccc(O)c1C" : reported inhibition (INH) = Dose-dependent effect
